assay: Solubility testing in vehicle, HPLC (Form III); format: physicochemical; settings: organic solvent or mixture, thermodynamic from solid; Cremophor EL; RT; 24 h; pH 8.5; loading 50 mg/mL

[
  {
    "COMPOUND_STRING": "C=CC(=O)N1CCC[C@@H](c2c(F)cc(C(N)=O)c3[nH]c4c(c23)CCCCC4)C1",
    "SCALE_UNIT": "mg/mL",
    "solubility at 24 h": 19.5
  }
]

====

test: Phase 1 food effect on pharmacokinetics; type: in vivo, human; details: human, plasma, oral, 15 mg, Cohorts 2 and 7, 15 mg single dose, Moderate-Fat, median; read-out: T1/2 (converted)
REPORTED_METRIC: half-life (h)

[
  {
    "MOLECULE": "C=CC(=O)N1CCC[C@@H](c2c(F)cc(C(N)=O)c3[nH]c4c(c23)CCCCC4)C1 [Compound 1]",
    "SCALE_UNIT": "h",
    "REPORTED_RESULT": 2.9
  }
]
